Source listed as patent US8765773B2.

Biological target: purified human HDAC6 (Homo sapiens, UniProt Q9UBN7)
Construct: purchased BPS Bioscience 5006
Sequence (Q9UBN7 whole entry): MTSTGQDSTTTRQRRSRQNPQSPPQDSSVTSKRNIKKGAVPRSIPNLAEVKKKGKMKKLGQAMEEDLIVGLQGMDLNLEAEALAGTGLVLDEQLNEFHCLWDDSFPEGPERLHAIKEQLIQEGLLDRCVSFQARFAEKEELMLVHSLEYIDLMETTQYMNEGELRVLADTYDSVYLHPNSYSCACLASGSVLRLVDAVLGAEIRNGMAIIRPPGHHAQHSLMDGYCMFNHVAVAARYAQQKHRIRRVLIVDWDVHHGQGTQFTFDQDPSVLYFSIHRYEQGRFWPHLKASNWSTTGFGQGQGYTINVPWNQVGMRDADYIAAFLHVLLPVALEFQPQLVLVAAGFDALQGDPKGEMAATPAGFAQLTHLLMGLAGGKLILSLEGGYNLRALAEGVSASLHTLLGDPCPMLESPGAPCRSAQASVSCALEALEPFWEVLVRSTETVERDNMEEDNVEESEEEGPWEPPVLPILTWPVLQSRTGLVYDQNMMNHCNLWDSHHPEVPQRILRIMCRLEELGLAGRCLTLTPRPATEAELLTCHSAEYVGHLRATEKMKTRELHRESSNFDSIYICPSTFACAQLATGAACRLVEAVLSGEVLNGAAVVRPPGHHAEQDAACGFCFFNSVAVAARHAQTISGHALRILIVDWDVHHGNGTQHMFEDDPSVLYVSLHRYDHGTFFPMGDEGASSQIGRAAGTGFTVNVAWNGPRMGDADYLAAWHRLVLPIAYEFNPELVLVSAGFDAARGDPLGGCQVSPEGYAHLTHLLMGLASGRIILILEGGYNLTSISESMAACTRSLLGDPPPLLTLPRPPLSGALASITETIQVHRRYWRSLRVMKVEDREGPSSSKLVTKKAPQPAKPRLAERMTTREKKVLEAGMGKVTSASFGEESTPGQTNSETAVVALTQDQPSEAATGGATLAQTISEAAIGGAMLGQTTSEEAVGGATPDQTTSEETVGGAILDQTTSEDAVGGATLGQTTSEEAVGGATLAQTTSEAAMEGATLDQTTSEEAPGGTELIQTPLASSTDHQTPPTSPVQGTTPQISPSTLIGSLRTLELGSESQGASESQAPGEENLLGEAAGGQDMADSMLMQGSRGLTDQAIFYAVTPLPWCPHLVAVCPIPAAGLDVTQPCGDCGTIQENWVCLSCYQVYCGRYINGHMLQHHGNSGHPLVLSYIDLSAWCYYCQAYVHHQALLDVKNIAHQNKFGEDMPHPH
Experiment: HDAC6 Enzyme Assay
Format: biochemical
Conditions: compound concentration 0.412 μM, read-out: Percent Inhibition
Everything with inhibition at 0.412 µM lower than 90% is -1; everything else, including exactly 90%, is 1.

// below: answered compounds
compound | label-value
O=C(NO)c1ccc2ncn(Cc3cccc(Cl)c3)c(=O)c2c1 [Compound I-127] | 1
Cn1c(NCc2ccncc2)nc2cc(C(=O)NO)ccc2c1=O [Compound I-47] | -1
O=C(NO)c1ccc2ncn(Cc3cccc(OC(F)(F)F)c3)c(=O)c2c1 [Compound I-55] | 1
O=C(NO)c1ccc2ccn(CCOc3ccccc3C(F)(F)F)c(=O)c2c1 [Compound I-175] | 1
Cc1ccccc1OCCCn1ccc2ccc(C(=O)NO)cc2c1=O [Compound I-38] | 1

**Q:** For this compound, is measured inhibition at 0.412 µM 90% or higher? O=C(NO)c1ccc2nc[nH]c(=O)c2c1 [Compound I-283]
**A:** -1

**Q:** For this compound, is measured inhibition at 0.412 µM 90% or higher? O=C(NO)c1ccc2ccn(Cc3ccc(F)cc3F)c(=O)c2c1 [Compound I-222]
**A:** 1

**Q:** For this compound, is measured inhibition at 0.412 µM 90% or higher? O=C(NO)c1ccc2ccn(CCCc3c[nH]c4ccccc34)c(=O)c2c1 [Compound I-95]
**A:** 1

**Q:** For this compound, is measured inhibition at 0.412 µM 90% or higher? COc1ccc2ccc(OCc3nc4cc(C(=O)NO)ccc4c(=O)[nH]3)cc2c1 [Compound I-225]
**A:** -1

**Q:** For this compound, is measured inhibition at 0.412 µM 90% or higher? O=C(NO)c1ccc2c(=O)n(-c3ccccc3)c(NCc3ccc(Cl)cc3)nc2c1 [Compound I-86]
**A:** -1

**Q:** For this compound, is measured inhibition at 0.412 µM 90% or higher? O=C(NO)c1ccc2ccn(CCc3c[nH]c4ccccc34)c(=O)c2c1 [Compound I-152]
**A:** 1

**Q:** For this compound, is measured inhibition at 0.412 µM 90% or higher? O=C(NO)c1ccc2ncn(C(c3ccccc3)c3ccccc3)c(=O)c2c1 [Compound I-4]
**A:** -1

**Q:** For this compound, is measured inhibition at 0.412 µM 90% or higher? COc1ccccc1OCCCn1ccc2ccc(C(=O)NO)cc2c1=O [Compound I-240]
**A:** 1

**Q:** For this compound, is measured inhibition at 0.412 µM 90% or higher? O=C(NO)c1ccc2[nH]c(=O)n(-c3ccccc3)c(=O)c2c1 [Compound I-123]
**A:** -1

**Q:** For this compound, is measured inhibition at 0.412 µM 90% or higher? O=C(NO)c1ccc2c(=O)n(Cc3cccc(C(F)(F)F)c3)cnc2c1 [Compound I-16]
**A:** 1

* * *

I'd appreciate it if you could supply inhibition at 0.412 µM values for the items below.
Target: purified human HDAC6 (Homo sapiens, UniProt Q9UBN7)
Construct: purchased BPS Bioscience 5006
Assay: HDAC6 Enzyme Assay
Type: biochemical
Conditions: compound concentration 0.412 μM, read-out: Percent Inhibition
One number for each entry, in %.

Below are worked cases with known answers.
compound | target-or-system | measurement-unit | inhibition at 0.412 µM
CCCCC(CC)Cn1ccc2ccc(C(=O)NO)cc2c1=O (stereo not drawn) | purified human HDAC6 (Homo sapiens, UniProt Q9UBN7) | % | 93.5
Cc1cc(Cn2ccc3ccc(C(=O)NO)cc3c2=O)no1 | purified human HDAC6 (Homo sapiens, UniProt Q9UBN7) | % | 91.2
O=C(NO)c1ccc2ccn(CCCOc3ccc(Oc4ccccc4)cc3)c(=O)c2c1 | purified human HDAC6 (Homo sapiens, UniProt Q9UBN7) | % | 87.5
Cn1ccc2ccc(C(=O)NO)cc2c1=O | purified human HDAC6 (Homo sapiens, UniProt Q9UBN7) | % | 67.6
O=C(NO)c1ccc2c(=O)n(CCOc3ccccc3)cnc2c1 | purified human HDAC6 (Homo sapiens, UniProt Q9UBN7) | % | 96.4

Provide the reported inhibition at 0.412 µM of each entry below, same order.
1. COCCOCCn1ccc2ccc(C(=O)NO)cc2c1=O
2. O=C(NO)c1ccc2c(=O)n(Cc3ccc(C(F)(F)F)cc3)c(-c3ccccc3)nc2c1
3. O=C(NO)c1ccc2c(=O)n(Cc3ccccc3)c(NCc3ccc(Cl)cc3)nc2c1
4. O=C(NO)c1ccc2ccn(Cc3cccc(OCc4ccccc4)c3)c(=O)c2c1
5. COc1ccc(N(CCCn2ccc3ccc(C(=O)NO)cc3c2=O)C(=O)OC(C)(C)C)cc1
6. O=C(NO)c1ccc2ccn(Cc3ccc(F)cc3)c(=O)c2c1
7. O=C(NO)c1ccc2ccn(Cc3cc(F)cc(F)c3)c(=O)c2c1

**A:**
86.9
87.7
86.2
89.5
94.4
93.8
95.5
